target: T1, human ROR1 Frizzled domain (hROR1-Fz) (human, UniProt Q01973 165-305); assay: SPR Biacore, IgG on anti-Fc, ROR1-Fz analyte
T1 construct: Acro Biosystems, made in HEK293
T1 sequence (Q01973 other isoform, or with tags, fused parts or gaps): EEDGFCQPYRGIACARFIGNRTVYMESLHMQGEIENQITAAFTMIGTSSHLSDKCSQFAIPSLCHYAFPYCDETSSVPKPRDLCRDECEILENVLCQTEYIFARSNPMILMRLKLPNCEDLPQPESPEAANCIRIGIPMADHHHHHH
metric: koff (s⁻¹)
Write it as a number; the unit s⁻¹ goes unstated.

Which koff value belongs to SRP2196-A07 (antibody, V domains shown, His/FLAG-tagged IgG1) VH: EVQLVESGGGLVQPGGSLRLSCAASGFNITGYYIHWVRQAPGKGLEWVGQISPNSGSTYYADSVKGRFTISADTSKNTAYLQMSSLRAEDTAVYYCARDSRRYVRGWDYWGQGTLVTVSS VL: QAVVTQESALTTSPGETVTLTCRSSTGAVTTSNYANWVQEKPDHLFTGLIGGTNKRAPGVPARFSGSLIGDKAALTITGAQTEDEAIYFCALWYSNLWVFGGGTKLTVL ?
0.00064

Which koff value belongs to SRP2196-B01 (antibody, V domains shown, His/FLAG-tagged IgG1) VH: EVQLVESGGGLVQPGGSLRLSCAASGFNITGYYIHWVRQAPGKGLEWVGQISPNSGYTYYADSVKGRFTISADTSKNTTYLQMNSLRAEDTAVYYCARDSRRYVRSWDYWGQGTLVTVSS VL: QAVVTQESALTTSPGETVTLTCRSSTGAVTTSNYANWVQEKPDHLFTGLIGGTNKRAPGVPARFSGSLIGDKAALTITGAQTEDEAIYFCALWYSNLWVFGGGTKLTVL ?
0.000401

Which koff value belongs to SRP2196-A09 (antibody, V domains shown, His/FLAG-tagged IgG1) VH: EVQLVESGGGLVQPGGSLRLSCAASGFNITGYYIHWVRQAPGKGLEWVGQISPNSGATHYADSVKGRFTISADTSKNTAYLQMNSLRAEDTAVYYCARDSRRYIRSWDYWGQGTLVTVSS VL: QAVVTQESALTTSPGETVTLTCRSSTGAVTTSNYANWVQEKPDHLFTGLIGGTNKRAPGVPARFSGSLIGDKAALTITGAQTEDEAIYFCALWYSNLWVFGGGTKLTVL ?
0.000568
